Experiment: Pharmacokinetics of HC-7366 in male and female beagle dogs following IV and oral administration of HC-7366-K (plasma and urine, LC-MS/MS)
Type: in vivo, Beagle Dog
Conditions: plasma; male beagle dog, oral 50 mg/kg; read-out: Mean oral bioavailability (FPO)
measurementLabel: bioavailability (%)
Output spec: scalar in %, unitless text.

[in] Report measured bioavailability; entry is CNC(=O)c1ncn2cc(-c3c(F)ccc(NS(=O)(=O)c4cc(Cl)cnc4OC)c3F)ncc12
[out] 58

###

Assay: Multicenter, open-label, Phase 1a/b study of HC-7366 in subjects with advanced solid tumors (safety, PK)
Assay type: in vivo
Details: plasma; human, single oral dose 20 mg (N = 3), Cycle 1 Day 1, geometric mean
measurementLabel: AUC(0-inf) (ng·h/mL)
Output spec: scalar in ng·h/mL, unitless text.

[in] Report measured AUC(0-inf); entry is CNC(=O)c1ncn2cc(-c3c(F)ccc(NS(=O)(=O)c4cc(Cl)cnc4OC)c3F)ncc12
[out] 36800

###

Assay: Multicenter, open-label, Phase 1a/b study of HC-7366 in subjects with advanced solid tumors (safety, PK)
Assay type: in vivo
Details: human, plasma, po, 125 mg, human, multiple once daily oral 125 mg (N = 1), Cycle 1 Day 21
measurementLabel: half-life (h)
Output spec: scalar in h, unitless text.

[in] Report measured half-life; entry is CNC(=O)c1ncn2cc(-c3c(F)ccc(NS(=O)(=O)c4cc(Cl)cnc4OC)c3F)ncc12 [HC-7366]
[out] 16.5
